- System: LOX IMVI melanoma
- Assay Remarks: NCI tumour cell line growth inhibition, 48 h
Would you kindly list TGI for each of these compounds?
Numbers only, in µM.

>>> value("CCOC(=O)/C(C#N)=C\\C=C(/Cl)c1ccc(Cl)cc1")
18.6

With those in mind, consider the next compound.
Data request, read-out TGI, for O=c1c(F)cn(Cc2ccccc2CCl)c(=O)n1Cc1ccccc1CCl
2.78

---

- Tested on: NCI-H522 lung
- Assay Remarks: NCI tumour cell line growth inhibition, 48 h
Could you please report measured TGI for the items listed next?

>>> value("CCCCN(CC)CC(C(C)=O)c1c(O)c2ccccc2oc1=O (stereo not drawn)")
"> 100 µM"
>>> value("CCOC(=O)c1cn2c(n1)sc1cc(Cl)cc(Cl)c12")
"> 100 µM"
>>> value("CC(=O)N1CCC2(c3ccccc3N(C(C)=O)C2c2ccc(O)cc2)C1C(=O)O (stereo not drawn)")
"> 100 µM"
>>> value("O=C(C(Cl)=C(N1CCOCC1)N1CCOCC1)C(Cl)Cl")
"> 100 µM"
>>> value("O=[N+]([O-])c1ccc(-c2ccc(-c3csc(Nc4ccccc4)n3)o2)cc1")
"32 µM"

Give measured TGI for every item shown.
1. CC(C)(C)c1cc(C(=O)/C=C/c2ccc3c(c2)OCO3)cc(C(C)(C)C)c1O
2. CN(C)CCNC(=O)Cn1ccc(=O)c2c([N+](=O)[O-])cccc21

1. 66 µM
2. > 100 µM

---

- Tested on: DLD-1 colon
- Assay Remarks: NCI tumour cell line growth inhibition, 48 h
Record form. Attribute: TGI. Fill in for each entry.

Worked examples follow.
>>> value("Nc1ncnc2c1ncn2CC(O)CO (centres undefined)")
"> 100 µM"
>>> value("COc1ccc(/C(=N\\NC(=S)NN)C(c2ccc(OC)cc2)C2C(=O)Oc3ccccc32)cc1 (centres undefined)")
"> 100 µM"
>>> value("Cc1ccccc1NC(=O)C1C(=O)N(c2ccccc2C)C(=O)/C1=N\\NC(N)=S (centres undefined)")
"> 100 µM"

Can you give me TGI for all of these, one by one?
1. CCOC(=O)NC(=O)c1cn(CCN2CCN(C(=O)CCCCCCCCCCC(=O)N3CCN(CCn4cc(C(=O)NC(=O)OCC)c(=O)[nH]c4=O)CC3)CC2)c(=O)[nH]c1=O
2. CC(C)(C)c1cc(C=C(C#N)C#N)cc(C(C)(C)C)c1O
3. O=C(/C=C/c1ccccc1)CC(=O)CCC(=O)Nc1ccc(Cl)cc1
4. CC(C)(Oc1ccc(/C=C/C(=O)c2ccc(Cl)cc2)cc1)C(=O)Nc1c(Cl)cccc1Cl
5. CN(C)C(=S)/N=c1\ssc(=S)n1Cc1ccncc1
6. C=C(CN(C)C)C(=O)c1ccccc1[N+](=O)[O-]

["> 100 µM", "42.7 µM", "> 100 µM", "29.2 µM", "47.4 µM", "29.5 µM"]

Would you mind listing TGI for each of the following compounds?
1. C[N+](C)(C)CC1CCCCC1O (centres undefined)
2. N/N=C1\C(=O)N(CCc2ccccc2)C(=O)C1C(=O)NCCc1ccccc1 (centres undefined)

> 100 µM
> 100 µM

Provide TGI for all items below, preserving their order.
1. CCOC(=O)C(NC(=O)c1nc[nH]c1[N+](=O)[O-])C(C)C (centres undefined)
2. CC(=O)N1CCC2(c3ccccc3N(C(C)=O)C2c2ccc(O)cc2)C1C(=O)O (centres undefined)

["> 100 µM", "> 100 µM"]

For every listed record, write down its TGI.
1. CSC(=S)N/N=C/c1nccc2ccccc12
2. CCOC(=O)/C(O)=C1\C(=O)N(C)C(=O)C1c1cccc(OC)c1 (centres undefined)
3. O=[N+]([O-])c1ccc(-c2ccc(-c3csc(Nc4ccccc4)n3)o2)cc1
4. Cn1c2c(c3ccccc31)CCN(CCN1CCN(c3cccc(Cl)c3)CC1)C2=O

1: 22.4 µM; 2: > 100 µM; 3: 65.9 µM; 4: > 100 µM

Hi there! I need TGI for each item below, if you can.
1. CC(C)(C)C(=O)[CH-]C(=O)C(C)(C)C.CC(C)(C)C(=O)[CH-]C(=O)C(C)(C)C.CN(C)c1ccc([O-])cc1.CN(C)c1ccc([O-])cc1.[Ti+4]
2. CN(C)CCC(=O)/C=C\c1ccccc1

["> 100 µM", "31.8 µM"]

---

Give measured TGI for each item. Keep answers brief.
- Tested on: SK-OV-3 ovarian
- Assay Remarks: NCI tumour cell line growth inhibition, 48 h

>>> value("c1c[nH]c(CN2CCOCC2)n1")
"> 100 µM"
>>> value("C(=N\\Nc1nnn(Cc2ccccc2)n1)/c1ccccc1")
"34.7 µM"
>>> value("COc1cnc2c(c1)C(=O)c1c-2n(CCCN2CCN(C)CC2)c(=O)c2cc([N+](=O)[O-])ccc12")
"3.59 µM"
>>> value("CC(C)(Oc1ccc(/C=C/C(=O)c2ccc(Cl)cc2)cc1)C(=O)Nc1c(Cl)cccc1Cl")
"> 100 µM"
>>> value("COc1ccc(C(=O)NCCN(C)C)c2nc3ccccc3nc12")
"> 63.2 µM"
>>> value("CCC1=CC2CN(C1)Cc1c([nH]c3ccccc13)[C@@](C(=O)OC)(c1cc3c(cc1OC)N(C)[C@H]1[C@@](O)(C(=O)OC)[C@H](OC(C)=O)[C@]4(CC)C=CCN5CC[C@]31[C@@H]54)C2 (stereo partly specified)")
"11.8 µM"

For every listed record, write down its TGI.
1. Cc1c2c(OCC3CCCCO3)nn(C)c(=O)c2c(C)n1-c1ccccc1 (stereo unspecified)
2. COc1cc(NCCCCCCCNC(C)C)c2nccc(C)c2c1
3. CCNC(=O)COc1ccc(Cl)cc1Cl
4. O=C(Nc1ccc(Cl)c(Cl)c1)NS(=O)(=O)c1cnccc1Oc1ccc(F)cc1
5. O=C(O)[C@H](c1ccccc1)[C@@H](C(=O)O)c1ccccc1
6. CC(=O)OCC1OC(N2C(=O)C(=O)c3ccccc32)C(OC(C)=O)C(OC(C)=O)C1OC(C)=O (stereo unspecified)
7. COc1cc2c(cc1OC)C(C(=O)c1cccc(OC)c1OC)C(=O)N(C)CC2 (stereo unspecified)

1: 34.8 µM; 2: 27.1 µM; 3: > 100 µM; 4: 18.2 µM; 5: > 100 µM; 6: > 100 µM; 7: > 100 µM

---

Provide the reported TGI of each item.
- System: SK-OV-3 ovarian
- Assay Remarks: NCI tumour cell line growth inhibition, 48 h

Check out these entries, answers already filled in.
>>> value("CSc1nnc(COc2ccc(Cl)cc2)o1")
"> 100 µM"
>>> value("OC(c1cc2ccc(C(F)(F)F)cc2c2cc(C(F)(F)F)ccc12)C1CCCCN1 (stereo unspecified)")
"3.82 µM"
>>> value("C=Cc1ccccc1C1(O)C=CC(OC)(OC)C=C1")
"29.3 µM"
>>> value("CSC(=NCCc1c[nH]c2ccccc12)NC#N")
"> 100 µM"
>>> value("CC(=O)OC1C(COC(=O)c2ccccc2)OC(Nc2ncc(-c3ccc(Br)cc3)s2)C(OC(=O)c2ccccc2)C1OC(=O)c1ccccc1 (stereo unspecified)")
"> 100 µM"
>>> value("Cc1nc(C(N)=S)sc1C(=O)/C=C/c1c(O)ccc2ccccc12")
"> 100 µM"

Hey, can you go through the list below and give me TGI for every item?
1. CCON1CC(C(=O)OC)=C(O)C1=O
2. Cc1ccccc1C(=O)N1CCN(C(=O)c2ccccc2C)CC1

["> 100 µM", "> 100 µM"]

---

I'd be grateful if you could share measured TGI for these entries.
- System: ACHN renal
- Assay Remarks: NCI tumour cell line growth inhibition, 48 h
Numbers only, in µM.

Example results:
>>> value("CCOC(=O)c1nc2cc(C(F)(F)F)ccc2nc1Nc1ccc(C(=O)NC(C(=O)OCC)C(=O)OCC)cc1")
63.1
>>> value("COc1c(O)c2c(=O)cc(OC)c3c4c(OC)cc(=O)c5c(O)c(OC)c6c(c(c1C(C(C)O)C6C(C)O)c23)c54 (configuration not stated)")
2.93
>>> value("CCOC(=O)C1SC(=Nc2ccc(Cl)cc2)N=C1C (configuration not stated)")
49.7
>>> value("C[C@H]1CCCC(O)C(O)[C@@H]2C[C@H](O[Si](C)(C)C(C)(C)C)C[C@H]2[C@H](O[Si](C)(C)C(C)(C)C)C(O)C(O)C(=O)O1 (some centres not stated)")
44.7

Now look at this one.
For O=C1NCN(c2ccccc2)C12CCN(CCCN1CCN(CCOC(c3ccc(F)cc3)c3ccc(F)cc3)CC1)CC2 , what is its reported TGI?
3.85

---

- Tested on: IGROV1 ovarian
- Assay Remarks: NCI tumour cell line growth inhibition, 48 h; in the data active = GI50 below about 0.43 µM; inactive = the rest
Hi! Could you answer with just one of these? true (1) for active, false (0) for inactive

Check out these entries, answers already filled in.
>>> cat("CN1/C(=C\\C=C\\C2=[N+](C)c3ccccc3C2(C)C)C(C)(C)c2ccccc21")
"true (1)"
>>> cat("CCOC(=O)/C(C#N)=C\\C=C(/Cl)c1ccc(Cl)cc1")
"false (0)"
>>> cat("C=C1C(=O)O[C@H]2[C@H]1CC/C(C=Nc1c(N)cc(C(F)(F)F)cc1Br)=C\\CC[C@@]1(C)O[C@@H]21")
"false (0)"
>>> cat("C=C1C[C@@H]2CC[C@@]34C[C@H]5O[C@H]6[C@@H](O3)[C@H]3O[C@H](CC[C@@H]3O[C@H]6[C@@H]5O4)CC(=O)C[C@@H]3[C@@H](OC)[C@@H](C[C@H](O)CN)O[C@H]3C[C@H]3O[C@@H](CC[C@@H]1O2)C[C@@H](C)C3=C")
"true (1)"
>>> cat("N#Cc1ccc(NC(=O)C(CC(=O)OCc2ccccc2)NC(=O)OCc2ccccc2)cc1 (stereo not given)")
"false (0)"
>>> cat("Cc1ccc(NC(=O)c2cc(S(=O)(=O)N3C(=O)NC(=O)NS3(=O)=O)c(S)cc2Cl)cc1")
"false (0)"

Tell me the assay call for Cc1ccc(-c2nc3nc(-c4ccc(F)cc4)nc(N4CCCNCC4)c3o2)cc1 please.
false (0)

Recorded test call requested for O=[N+]([O-])c1ccc(Sc2c3ccccc3nc3cc(Cl)ccc23)cc1
false (0)

Recorded call for COc1cc(NCCCCCCCNC(C)C)c2nccc(C)c2c1 ?
false (0)

What did this assay record as the result for CC(C)(C)C(=O)[CH-]C(=O)C(C)(C)C.CC(C)(C)C(=O)[CH-]C(=O)C(C)(C)C.CN(C)c1ccc([O-])cc1.CN(C)c1ccc([O-])cc1.[Ti+4] ?
false (0)

Look up the recorded call for COc1ccc(/C(=N\NC(=S)NN)C(c2ccc(OC)cc2)C2C(=O)Oc3ccccc32)cc1 (stereo not given) in this test.
false (0)
